Entry source: patent US10889611B2

Below, each entry is listed alongside its reported inhibition at 500 µM.
Test System: α2,3(O)-sialyltransferase ST3GALI (Rattus norvegicus, UniProt Q6H8N0)
Construct: purchased Calbiochem
Sequence (Q6H8N0 1-340): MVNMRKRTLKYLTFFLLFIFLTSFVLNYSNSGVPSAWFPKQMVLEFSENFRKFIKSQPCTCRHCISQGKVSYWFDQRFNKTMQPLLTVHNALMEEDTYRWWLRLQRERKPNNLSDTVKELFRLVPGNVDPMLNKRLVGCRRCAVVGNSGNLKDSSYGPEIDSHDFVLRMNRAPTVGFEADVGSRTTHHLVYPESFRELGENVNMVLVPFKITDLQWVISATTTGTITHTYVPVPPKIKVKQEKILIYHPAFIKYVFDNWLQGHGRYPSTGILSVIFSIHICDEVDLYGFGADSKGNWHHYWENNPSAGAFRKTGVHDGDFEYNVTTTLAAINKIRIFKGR
Test Details: Sialyltransferase inhibition assay, ST3GALI (reverse-phase HPLC)
Format: biochemical
Test Parameters: measured at 500 μM; read-out: ST3GALI inhibition percentage

{"Molecule": "C[C@H](CCC(=O)OCCOCCOCCN=[N+]=[N-])C1CC[C@H]2[C@@H]3CC[C@@H]4C[C@H](OC(=O)[C@H](CC(=O)O)NC(=O)c5ccc([N+](=O)[O-])cc5)CC[C@]4(C)[C@H]3CC[C@]12C (stereo partly drawn)", "Units": "%", "inhibition at 500 µM": 0}
{"Molecule": "C[C@H](CCC(=O)OCCOCCOCCOCCOCCN=[N+]=[N-])C1CC[C@H]2[C@@H]3CC[C@@H]4C[C@H](OC(=O)[C@H](CC(=O)O)NC(=O)c5ccc([N+](=O)[O-])cc5)CC[C@]4(C)[C@H]3CC[C@]12C (stereo partly drawn)", "Units": "%", "inhibition at 500 µM": 0}
{"Molecule": "COc1ccc2c(CC(=O)N[C@@H](CC(=O)O)C(=O)O[C@@H]3CC[C@@]4(C)[C@H](CC[C@@H]5[C@@H]4CC[C@]4(C)C([C@H](C)CCC(=O)OCCOCCN=[N+]=[N-])CC[C@@H]54)C3)cc(=O)oc2c1 (stereo partly drawn)", "Units": "%", "inhibition at 500 µM": 0}
{"Molecule": "C[C@H](CCC(=O)OCCOCCOCCOCCOCCN=[N+]=[N-])C1CC[C@H]2[C@@H]3CC[C@@H]4C[C@H](OC(=O)[C@H](CC(=O)O)Nc5ccc([N+](=O)[O-])c6nonc56)CC[C@]4(C)[C@H]3CC[C@]12C (stereo partly drawn)", "Units": "%", "inhibition at 500 µM": 0}
{"Molecule": "COc1ccc2c(CC(=O)N[C@@H](CC(=O)O)C(=O)O[C@@H]3CC[C@@]4(C)[C@H](CC[C@@H]5[C@@H]4CC[C@]4(C)C([C@H](C)CCC(=O)OCCOCCOCCOCCOCCN=[N+]=[N-])CC[C@@H]54)C3)cc(=O)oc2c1 (stereo partly drawn)", "Units": "%", "inhibition at 500 µM": 0}
{"Molecule": "COc1ccc2c(CC(=O)N[C@@H](CC(=O)O)C(=O)O[C@@H]3CC[C@@]4(C)[C@H](CC[C@@H]5[C@@H]4CC[C@]4(C)C([C@H](C)CCC(=O)OCCOCCOCCOCCN=[N+]=[N-])CC[C@@H]54)C3)cc(=O)oc2c1 (stereo partly drawn)", "Units": "%", "inhibition at 500 µM": 0}
